system.name: hGIPR (Homo sapiens, UniProt P48546)
Construct: expressed in transfected cells; host or cells: CHO cells carrying a CRE-luciferase reporter gene
Sequence (P48546 22-466): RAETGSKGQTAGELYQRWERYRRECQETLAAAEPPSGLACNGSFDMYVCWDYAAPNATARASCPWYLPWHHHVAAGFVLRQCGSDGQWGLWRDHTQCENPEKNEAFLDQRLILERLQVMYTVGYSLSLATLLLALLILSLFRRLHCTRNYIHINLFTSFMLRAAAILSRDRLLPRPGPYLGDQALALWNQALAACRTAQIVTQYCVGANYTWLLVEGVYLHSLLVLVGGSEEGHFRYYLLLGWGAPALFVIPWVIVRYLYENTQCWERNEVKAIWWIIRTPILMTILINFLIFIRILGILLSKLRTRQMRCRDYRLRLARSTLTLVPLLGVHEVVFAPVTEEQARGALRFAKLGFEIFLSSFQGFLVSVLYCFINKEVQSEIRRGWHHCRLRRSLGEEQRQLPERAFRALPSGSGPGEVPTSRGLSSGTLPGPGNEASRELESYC
assay.text: hGIPR CreLuc reporter gene assay in 0.5% and 100% plasma
Type: cell-based
recorded.conditions: CreLuc reporter gene assay, 0.5% human plasma; read-out: hGIPR 0.5% hP
Starred links: 1 amine or outer side, 2 acyl side, 3 side chain; linkers in the order of their positions; H or OH if unused. Positions of bridges follow the written chain, without caps; N, C: chain ends. Non-standard residues stand in square brackets, D forms with d. Groups on a side chain read outwards from the residue. Chains are numbered I, II in the order given. No end group written: not given here. *: point of attachment. C20 diacid = O=C(O)CCCCCCCCCCCCCCCCCCC(=O)*; C18 diacid = O=C(O)CCCCCCCCCCCCCCCCC(=O)*; γGlu = O=C(O)[C@H](CCC(=O)[*:2])N[*:1]; εLys = N[C@@H](CCCCN[*:1])C(=O)[*:2]; NMeQ = CN[C@@H](CCC(N)=O)C(=O)O; Tle = CC(C)(C)[C@H](N)C(=O)O; AEEA = NCCOCCOCC(=O)O; Aib = CC(C)(N)C(=O)O; Ahx = NCCCCCC(=O)O
Kindly supply the reported EC50 values for the records listed here.
Numbers only, in nM.

Field: example entries. Status: answers known.
substance="H-Y[Aib]EGTFTSDYSI[Aib]LEKQAQ[Aib]AFVEWLIK([Ahx-γGlu-γGlu-γGlu-γGlu-γGlu-C18 diacid])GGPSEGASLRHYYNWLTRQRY-NH2 [Compound 304]" number=0.23
substance="I: H-Y[Aib]EGTFTSDYSI[Aib]LEKQAQ[Aib]AFVQWLIKGGPSEGASLRHYYNWLTRQRY-NH2 / II: {C18 diacid}-EEEEEE (amide I:28-II:C) [Compound 264]" number=0.28
substance="Y[Aib]EGTFTSDYSI[Aib]LEKQAQ[Aib]AFVQWLIK([εLys-γGlu-γGlu-γGlu-γGlu-γGlu-γGlu-γGlu-C20 diacid])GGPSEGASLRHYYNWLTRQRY-NH2 [Compound 224]" number=0.43
substance="H-Y[Aib]EGTFTSDYSI[Aib]LEKQAQ[Aib]AFVEWLIK([εLys-γGlu-γGlu-γGlu-γGlu-γGlu-γGlu-C20 diacid])GGPSEPASLRHYYNWLTRQRY-NH2 [Compound 233]" number=0.08
substance="H-Y[Aib]EGTFTSDYSI[Aib]LEEQAQ[Aib]AFVEWLIK([εLys-γGlu-γGlu-γGlu-γGlu-γGlu-γGlu-C20 diacid])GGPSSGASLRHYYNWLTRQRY-NH2 [Compound 116]" number=0.43
substance="H-Y[Aib]EGTFTSDYSI[Aib]LEKQAQ[Aib]AFVEWLIK([εLys-γGlu-γGlu-γGlu-γGlu-γGlu-C20 diacid])GGPEEGASLRHYYNWLTRQRY-NH2 [Compound 230]" number=0.28
substance="H-Y[Aib]EGTFTSDYSI[Aib]LEKQAQ[Aib]AFVEWLIK([γGlu-γGlu-γGlu-γGlu-γGlu-C20 diacid])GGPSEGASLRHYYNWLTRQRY-NH2 [Compound 289]" number=0.7
substance="H-Y[Aib]EGTFTSDYSI[Aib]LEKQAQ[Aib]EFVEWLIK([AEEA-AEEA-γGlu-γGlu-γGlu-C18 diacid])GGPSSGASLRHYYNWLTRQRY-NH2 [Compound 171]" number=0.2
substance="H-Y[Aib]EGTFTSDYSI[Aib]LEKQAQ[Aib]AFVEWLIK([εLys-γGlu-γGlu-γGlu-γGlu-γGlu-γGlu-C20 diacid])GGPSSGASLRHYYNW[Tle]TRQRY-NH2 [Compound 137]" number=0.28
substance="H-Y[Aib]EGTFTSDYSI[Aib]LEKQAQ[Aib]AFVQWLIK([εLys-γGlu-γGlu-γGlu-γGlu-γGlu-γGlu-C20 diacid])GGPSEGASLRHYYNWLTR[NMeQ]RY-NH2 [Compound 115]" number=0.51

List the reported EC50 of each substance below.
1. H-Y[Aib]EGTFTSDYSI[Aib]LEEQAQ[Aib]AFVEWLIK([εLys-AEEA-γGlu-γGlu-γGlu-γGlu-γGlu-C20 diacid])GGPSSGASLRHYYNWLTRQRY-NH2 [Compound 110]
2. H-Y[Aib]EGTFTSDYSI[Aib]LEKQAQ[Aib]AFVEWLIK([AEEA-AEEA-γGlu-γGlu-γGlu-γGlu-C20 diacid])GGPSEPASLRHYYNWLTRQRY-NH2 [Compound 226]
3. H-Y[Aib]EGTFTSDYSI[Aib]LEKQAQ[Aib]AFVEWLIK([εLys-γGlu-γGlu-γGlu-γGlu-γGlu-γGlu-C20 diacid])GGPSSYVSLRHYYNWLTRQRY-NH2 [Compound 40]

Response:
1. 0.15
2. 0.43
3. 0.48
